System: KM12 colon
Experiment: NCI tumour cell line growth inhibition, 48 h
observed.property: TGI

Solved cases below.
{"compound.structure": "CCc1nc2cc3cccnc3c(Cl)c2[nH]c1=O", "system.under.test": "KM12 colon", "TGI": "> 100 µM"}
{"compound.structure": "CC1=C(c2cc(C(=O)Nc3ccc(Cl)cc3)nc(=S)[nH]2)Sc2ccccc2N1", "system.under.test": "KM12 colon", "TGI": "> 100 µM"}

Attention now turns to another entry.
Given item `CC(C)CCn1nc(N)c2nc3ccccc3nc21` , the value recorded as its TGI is > 100 µM

* * *

System: 786-0 renal
Assay: NCI tumour cell line growth inhibition, 48 h
observed.property: TGI (µM)
State the answer as a number, implicitly in µM.

Please review the following examples before continuing.
{"molecule": "COc1ccc(N=Nc2c3c(c(O)c4ccccc24)CCC(C)(C)O3)cc1", "TGI / µM": 73.8}
{"molecule": "OC1(c2ccc(Cl)cc2)c2ccc(CN3CCCC3)cc2C2=NCCN21 (stereo not given)", "TGI / µM": 28.6}

Record `O=c1oc2ccc(Br)cc2c(=O)n1-c1ccc(F)cc1F` has 786-0 renal TGI equal to 11.6
